Would you mind telling me the reported solubility in o-dichlorobenzene of each entry?
Experiment: Solubility in o-dichlorobenzene by UV-vis absorbance at 360 nm
Conditions: room temperature (about 22° C.)

>>> meas_value("CCCCC1c2ccccc2C(CCCC)C23c4c5c6c7c8c9c(c%10c%11c2c2c4c4c%12c5c5c6c6c8c8c%13c9c9c%10c%10c%11c%11c2c2c4c4c%12c%12c5c5c6c8c6c8c%13c9c9c%10c%10c%11c2c2c4c4c%12c5c6c5c8c9c%10c2c45)C713 (stereo not shown)")
"9.3 mg/mL"
>>> meas_value("CCCCCCCC1c2ccccc2C(CCCCCCC)C23c4c5c6c7c8c9c(c%10c%11c2c2c4c4c%12c5c5c6c6c8c8c%13c9c9c%10c%10c%11c%11c2c2c4c4c%12c%12c5c5c6c8c6c8c%13c9c9c%10c%10c%11c2c2c4c4c%12c5c6c5c8c9c%10c2c45)C713 (stereo not shown)")
"20 mg/mL"
>>> meas_value("c1ccc2c(c1)CC13c4c5c6c7c8c9c(c%10c%11c1c1c%12c4c4c%13c5c5c7c7c8c8c%14c9c%10c9c%10c%11c1c1c%11c%12c4c4c%12c%13c5c5c7c7c8c8c%14c9c9c%10c1c1c%11c4c4c%12c5c7c5c8c9c1c45)C63C2 (stereo not shown) [oQDM-C60, reference compound]")
"5.8 mg/mL"

Now, please, on to the next molecule.
What value of solubility in o-dichlorobenzene has been reported for the following molecule? CCCCCCC1c2ccccc2C(CCCCCC)C23c4c5c6c7c8c9c(c%10c%11c2c2c4c4c%12c5c5c6c6c8c8c%13c9c9c%10c%10c%11c%11c2c2c4c4c%12c%12c5c5c6c8c6c8c%13c9c9c%10c%10c%11c2c2c4c4c%12c5c6c5c8c9c%10c2c45)C713 (stereo not shown)
45 mg/mL
